test system: Phosphatidylinositol 3-kinase catalytic subunit type 3 (Homo sapiens, UniProt Q8NEB9)
Sequence (Q8NEB9 whole entry): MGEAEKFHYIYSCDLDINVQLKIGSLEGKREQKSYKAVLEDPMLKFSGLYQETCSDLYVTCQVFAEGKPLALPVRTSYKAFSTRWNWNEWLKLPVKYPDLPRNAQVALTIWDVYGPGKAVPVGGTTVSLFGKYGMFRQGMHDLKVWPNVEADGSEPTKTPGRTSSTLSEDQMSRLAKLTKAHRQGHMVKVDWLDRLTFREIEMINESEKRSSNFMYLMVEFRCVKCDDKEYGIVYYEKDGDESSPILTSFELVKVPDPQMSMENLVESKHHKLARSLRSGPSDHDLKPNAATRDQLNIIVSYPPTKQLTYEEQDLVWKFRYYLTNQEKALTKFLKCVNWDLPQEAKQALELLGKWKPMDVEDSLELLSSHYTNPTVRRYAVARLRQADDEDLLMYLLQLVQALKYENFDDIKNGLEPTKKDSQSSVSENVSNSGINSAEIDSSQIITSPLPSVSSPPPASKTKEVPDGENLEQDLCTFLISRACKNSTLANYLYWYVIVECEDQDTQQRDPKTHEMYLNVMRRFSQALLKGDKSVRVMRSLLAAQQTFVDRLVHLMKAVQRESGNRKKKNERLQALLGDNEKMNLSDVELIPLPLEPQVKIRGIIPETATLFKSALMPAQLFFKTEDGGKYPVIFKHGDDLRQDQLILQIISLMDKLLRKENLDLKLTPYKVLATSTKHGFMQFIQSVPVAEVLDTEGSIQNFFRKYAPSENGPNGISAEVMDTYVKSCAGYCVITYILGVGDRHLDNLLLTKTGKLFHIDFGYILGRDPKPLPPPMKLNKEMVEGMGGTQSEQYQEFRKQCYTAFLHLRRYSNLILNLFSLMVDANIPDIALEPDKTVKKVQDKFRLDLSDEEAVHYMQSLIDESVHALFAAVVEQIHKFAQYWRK
measurement notes: Biochemical Assay for VPS34
Procedure: Activity of VPS34 kinase was determined using an ADP-Glo kinase activity assay (Promega Corp). Assays were conducted in 384-well plates (5 μL assay volume) using 25 nM VPS34 (ThermoFisher Scientific), […] PI:3PS Lipid Kinase Substrate (Promega Corp.), and 1 mM ATP in kinase buffer. Inhibition of VPS34 was measured by adding serial diluted test compound (final assay concentration of 0.1% DMSO) followed by a 1-hour incubation at 37° C. […] Luminescence was then detected. […]
endpoint: IC50

Query block: Endpoint output: IC50 of `COC(=O)Nc1cc(-c2cc(-c3cnccc3C(F)(F)F)[nH]c(=O)c2)c(C)cn1` . Value?
Result block: < 0.1 µM
